Value source: patent US9884874B2

# PROTOCOL_TEXT: Pharmacokinetics in beagle dogs
# Type: in vivo
# COND: plasma, dog, IV, 3 mg/kg
# Method: For serum compound analysis, blood samples were collected by cardiac puncture over 24 hr time course. […] Lower limit of quantification (LLOQ) was at 1 ng/mL. Pharmacokinetic parameters of half-life (T1/2), clearance (CL), maximum plasma concentration (Cmax), mean residence time (MRT) and bioavailability (F %), plasma exposure (AUC) of the compound were calculated using Phoenix WinNonlin 6.3 (non-compartmental model). […]
QUANTITY_MEASURED: MRT (h)
// return numeric value only (unit: h, not printed)

The reported value for COc1ccc2c(c1)C(c1ccc(Cl)cc1)=N[C@@H](COS(C)(=O)=O)c1nnc(C)n1-2 [Compound 1] in terms of MRT is 4.9

----------
Listing: microsomal CLint at 1 µM of selected molecules
# PROTOCOL_TEXT: Human liver microsomal stability/clearance
# Type: in vitro ADME
# COND: human, microsomes
// return numeric value only (unit: µL/min/mg, not printed)

Recorded microsomal CLint at 1 µM, per entry:
| MOLECULE | NUMERIC_READOUT |
| --- | --- |
| Cc1sc2c(c1C)C(c1ccc(Cl)cc1)=N[C@@H](COS(N)(=O)=O)c1nnc(C)n1-2 [Compound 16] | 10 |
| Cc1sc2c(c1C)C(c1ccc(Cl)cc1)=N[C@@H](COS(=O)(=O)N(C)C)c1nnc(C)n1-2 [Compound 17] | 171 |

The reported value for CNS(=O)(=O)OC[C@@H]1N=C(c2ccc(Cl)cc2)c2c(sc(C)c2C)-n2c(C)nnc21 [Compound 18] in terms of microsomal CLint at 1 µM is 51

----------
# Test system: MV4-11 (human leukemia cell line)
# PROTOCOL_TEXT: Anti-proliferative activity test (CellTiter-Glo), MV4-11
# Format: cell-based
# COND: second value of LnCAP/MV4-11 cell, read-out: Cell proliferation IC50 (MV4-11)
QUANTITY_MEASURED: pIC50
In plain terms, pIC50 is the concentration in mol/L turned into minus its base-10 logarithm.

# pIC50 measured on MV4-11 (human leukemia cell line) for item `Cc1nnc2n1-c1ccc(-c3cnn(CC(N)=O)c3)cc1C(c1ccc(Cl)cc1)=N[C@H]2COS(C)(=O)=O` = 5.97

# pIC50 measured on MV4-11 (human leukemia cell line) for item `COc1ccc2c(c1)C(c1ccc(Cl)cc1)=N[C@@H](COS(=O)(=O)N(C)C)c1nnc(C)n1-2` = 5.83

# pIC50 measured on MV4-11 (human leukemia cell line) for item `COc1ccc2c(c1)C(c1ccc(Cl)cc1)=N[C@@H](COS(N)(=O)=O)c1nnc(C)n1-2` = 5.83

# pIC50 measured on MV4-11 (human leukemia cell line) for item `COc1ccc2c(c1)C(c1ccc(Cl)cc1)=N[C@@H](COS(=O)(=O)C1CC1)c1nnc(C)n1-2` = 6.16
